System name: T1, human soluble CEA (human, UniProt P06731 35-685, limits assumed)
T1 construct: also called sCEA
T1 sequence (looked up): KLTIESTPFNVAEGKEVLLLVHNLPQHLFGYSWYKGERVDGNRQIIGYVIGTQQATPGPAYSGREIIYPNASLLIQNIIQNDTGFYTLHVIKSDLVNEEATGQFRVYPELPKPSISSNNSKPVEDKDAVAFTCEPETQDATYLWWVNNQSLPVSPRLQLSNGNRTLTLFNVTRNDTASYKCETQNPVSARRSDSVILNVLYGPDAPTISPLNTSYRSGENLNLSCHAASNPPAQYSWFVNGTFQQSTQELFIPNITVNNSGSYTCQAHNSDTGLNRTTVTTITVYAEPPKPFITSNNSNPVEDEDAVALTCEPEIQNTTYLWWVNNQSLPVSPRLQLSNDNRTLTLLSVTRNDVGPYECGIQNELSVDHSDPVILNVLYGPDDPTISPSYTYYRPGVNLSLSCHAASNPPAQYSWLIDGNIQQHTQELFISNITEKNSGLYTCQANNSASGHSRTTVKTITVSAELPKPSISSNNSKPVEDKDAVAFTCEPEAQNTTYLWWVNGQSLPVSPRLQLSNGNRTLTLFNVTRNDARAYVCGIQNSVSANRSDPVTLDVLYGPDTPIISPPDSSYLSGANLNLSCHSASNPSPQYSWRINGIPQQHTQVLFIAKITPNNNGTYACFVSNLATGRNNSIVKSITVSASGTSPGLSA
Method: SPR (Biacore T200), antibody captured, soluble CEA as analyte, 1:1 Langmuir
Metric name: Kd (nM)

| Binder | Unit abbreviation | Numeric value |
| --- | --- | --- |
| Hu67-14 (antibody, human IgG1, kappa, V domains shown, Humanized IgG1/kappa; h67VH3 + h67VL4) VH: EVQLVQSGAEVKKPGESLKISCKGSGYSFTDYHMNWVKQMPGKGLEWMGDINPDIGGTSYNQNFKGKVTISVDKSISTAYLQWSSLKASDTAMYYCARWDFDSFANWGQGTLVTVSS VL: DIQMTQSPSSLSASVGDRVTITCRASESVSIIGTNLIHWYQQKPGKAPKLLIYHASNLETGVPSRFSGSGSGTDFTLTISSLQPEDFATYYCLQSRKIPYTFGGGTKVEIKR | nM | 228 |

Taken from patent US20230055408A1.
